# target: Kinase A and Spo0F (Bacillus subtilis)
# Construct: made in house; host or cells: recombinant E. coli
# Sequence (P16497 1-606): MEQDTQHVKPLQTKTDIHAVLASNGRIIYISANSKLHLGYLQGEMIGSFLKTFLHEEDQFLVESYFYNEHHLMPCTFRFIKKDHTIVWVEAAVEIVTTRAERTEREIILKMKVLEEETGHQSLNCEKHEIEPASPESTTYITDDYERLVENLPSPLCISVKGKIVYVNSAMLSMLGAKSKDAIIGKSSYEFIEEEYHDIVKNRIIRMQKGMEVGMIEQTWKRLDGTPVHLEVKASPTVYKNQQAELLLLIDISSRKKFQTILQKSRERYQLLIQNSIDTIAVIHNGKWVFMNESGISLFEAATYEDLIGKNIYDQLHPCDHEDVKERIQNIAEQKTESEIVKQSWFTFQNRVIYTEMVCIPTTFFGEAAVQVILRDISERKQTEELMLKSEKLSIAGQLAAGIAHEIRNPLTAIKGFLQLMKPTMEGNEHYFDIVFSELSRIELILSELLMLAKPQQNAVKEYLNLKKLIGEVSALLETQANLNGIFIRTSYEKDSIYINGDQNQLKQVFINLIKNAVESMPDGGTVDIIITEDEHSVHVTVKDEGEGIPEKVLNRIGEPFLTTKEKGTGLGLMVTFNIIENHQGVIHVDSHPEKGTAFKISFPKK
# run description: Autophosphorylation of Kinase A and Transphosphorylation of Spo0F Assay (HPK in vitro assay)
# Format: biochemical
# condition summary: Table 1, KinA/Spo0F phosphorylation, in µM
Catalogue of IC50 values
observed property: IC50

[[record]]
chem_smiles = "CC(C)(C)c1ccc(-c2nc3ccc(C(=N)N)cc3[nH]2)cc1"
observed_property = "IC50"
quantitative_result = 70.6

[[record]]
chem_smiles = "CC(C)(C)c1cc(-c2nc3ccc(C(=N)N)cc3[nH]2)cc(C(C)(C)C)c1O"
observed_property = "IC50"
quantitative_result = 75.9

[[record]]
chem_smiles = "N=C(N)c1ccc2nc(-c3ccc(OCc4ccc([N+](=O)[O-])cc4)cc3)[nH]c2c1"
observed_property = "IC50"
quantitative_result = 19.4

[[record]]
chem_smiles = "N=C(N)c1ccc2nc(-c3ccc(-c4ccccc4)cc3)[nH]c2c1"
observed_property = "IC50"
quantitative_result = 86

[[record]]
chem_smiles = "CCN(CC)c1ccc(-c2nc3ccc(C(=N)N)cc3[nH]2)c(O)c1"
observed_property = "IC50"
quantitative_result = 51

[[record]]
chem_smiles = "CC(C)(C)c1cc(-c2nc3ccc(C(=N)N)cc3[nH]2)cc(C(C)(C)C)c1"
observed_property = "IC50"
quantitative_result = 19

[[record]]
chem_smiles = "CC(C)(C)c1cc(-c2nc3ccc(C(=N)N)cc3[nH]2)c(OCC(=O)O)c(C(C)(C)C)c1"
observed_property = "IC50"
quantitative_result = 199

[[record]]
chem_smiles = "N=C(N)c1ccc2nc(-c3ccc(C(F)(F)F)cc3)[nH]c2c1"
observed_property = "IC50"
quantitative_result = 169

[[record]]
chem_smiles = "N=C(N)c1ccc2nc(-c3ccc(C=Cc4ccccc4)cc3)[nH]c2c1"
observed_property = "IC50"
quantitative_result = 21.5

